Taken from paper PMC11149917.

assay: Mouse blood and tissue PK (LC/MS-MS); assay type: in vivo; settings: BALB/c nude, mouse, colon, oral, 25 mg/kg, sheet colon; Capan-2, Capan-2 #3_PHA 2023; 25 mg/kg, 2h; read-out: RMC-6236 (nM) Tumor

Chem Smiles	concentration at 2 h / nM
CCn1c(-c2cc(N3CCN(C)CC3)cnc2[C@H](C)OC)c2c3cc(ccc31)-c1csc(n1)C[C@H](NC(=O)[C@H]1C[C@@H]1C)C(=O)N1CCC[C@H](N1)C(=O)OCC(C)(C)C2	5810

====

tested on: panel of 78 cancer cell lines; assay: Cell panel 3D methylcellulose CellTiter-Glo proliferation; assay type: cell-based; details: Homo sapiens, NCI-H2009, NCIH2009; KRAS G12A; Lung; read-out: Proliferation Inhibition (EC50)

Molecule	EC50
CCn1c(-c2cc(N3CCN(C)CC3)cnc2[C@H](C)OC)c2c3cc(ccc31)-c1csc(n1)C[C@H](NC(=O)[C@H]1C[C@@H]1C)C(=O)N1CCC[C@H](N1)C(=O)OCC(C)(C)C2 [RMC-6236]	19.3 nM
